Values from patent US5081232A

- Method: Animal biodistribution (in vivo, i.v. injection)
- Reported Conditions: rats, 2 min p.i.
Value Kind: Liver, % injected dose/organ (% injected dose/organ)
Give bare numbers, in % injected dose/organ.

In the examples that follow, each entry is paired with its recorded Liver, % injected dose/organ.
# Molecule, Value Kind, Output Unit, Reported Measurement
records = [
    ("O=[N][99Tc]([Cl])([Cl])[Cl].c1ccc(-c2ccccn2)nc1 [[^99 Tc(NO)Cl3 (Bipy)]]", "Liver, % injected dose/organ", "% injected dose/organ", 3.43),
    ("O=[N][99Tc-]([Cl])([Cl])([Cl])[Cl] [[^99m TcNOCl4]^-]", "Liver, % injected dose/organ", "% injected dose/organ", 5.31),
]

Q: Read off the recorded Liver, % injected dose/organ for CC(=O)C=C(C)[O][99Tc-]([Cl])([Cl])([Cl])[N]=O [[^99 Tc(NO)Cl3 (acac)]^-]
Result: 3.12
